protocolSummary: Clearance in Sprague-Dawley rat at 0.1 mg/kg, iv administered as cassette dose by LC-MS/MS analysis
Type: ADME, organism-based
testParameters: in vivo
Numbered stars: 1 amine (or outer) side, 2 acyl side, 3 side chain; on linkers, the order of the positions; unused ones are H or OH. Bridge positions count the residues as written; N and C are the ends. Square brackets hold non-standard residues; d marks the D form. Peptide text beside a SMILES is read from it. * marks the point of attachment. Phe(4-Cl) = N[C@@H](Cc1ccc(Cl)cc1)C(=O)O; Phe(4-F) = N[C@@H](Cc1ccc(F)cc1)C(=O)O; 2Thi = N[C@@H](Cc1cccs1)C(=O)O; X4 = N=C(N)NCCC[C@@H](CO)N*; X2 = N=C(N)NCCC[C@H](CO)N*; hCys = N[C@@H](CCS)C(=O)O; X1 = O=C(CCC[*:2])[*:1]; X3 = O=C(CC[*:2])[*:1]
Given measured clearance, output T if it is greater than or equal to 30 mL/min/kg and F if not.

Observe how each entry below is paired with its result.
| compound | labelClass |
| --- | --- |
| CC(C)[C@@H]1NC(=O)[C@H](Cc2cccs2)NC(=O)[C@H](Cc2ccc(Cl)cc2)NC(=O)CCCSC[C@@H](C(=O)N2CSC[C@H]2C(=O)N[C@H](CCCNC(=N)N)C(=O)NCc2ccccc2)NC(=O)[C@H](CC(N)=O)NC1=O | T |
| CC(C)[C@@H]1NC(=O)[C@H](Cc2cccs2)NC(=O)[C@H](Cc2ccc(Cl)cc2)NC(=O)CCCSC[C@@H](C(=O)N2CSC[C@H]2C(=O)N[C@H](CCCNC(=N)N)C(=O)NCCc2cccs2)NC(=O)[C@H](CC(N)=O)NC1=O | T |
| CC(C)[C@@H]1NC(=O)[C@H](Cc2ccc(F)cc2)NC(=O)[C@H](Cc2ccc(Cl)cc2)NC(=O)CCCSC[C@@H](C(=O)N2CCC[C@H]2C(=O)N[C@@H](CO)CCCNC(=N)N)NC(=O)[C@H](CC(N)=O)NC1=O ([Phe(4-Cl)][Phe(4-F)]VNCP-X2; linker N-5 via X1) | F |

[ask] Is reported clearance greater than or equal to 30 mL/min/kg here: CC(C)[C@@H]1NC(=O)[C@H](Cc2cccs2)NC(=O)[C@H](Cc2ccc(O)cc2)NC(=O)CCSCC[C@@H](C(=O)N2CCC[C@H]2C(=O)N[C@@H](CO)CCCNC(=N)N)NC(=O)[C@H](CC(N)=O)NC1=O (Y[2Thi]VN[hCys]P-X2; linker N-5 via X3)
[reply] F

[ask] Is reported clearance greater than or equal to 30 mL/min/kg here: "CCNC(=O)[C@@H](CCCNC(=N)N)NC(=O)[C@@H]1CCCN1C(=O)[C@@H]1CCSCCC(=O)N[C@@H](Cc2ccc(Cl)cc2)C(=O)N[C@@H](Cc2cccs2)C(=O)N[C@@H](C(C)C)C(=O)N[C@@H](CC(N)=O)C(=O)N1"
[reply] F

[ask] Is reported clearance greater than or equal to 30 mL/min/kg here: "CC(C)CNC(=O)[C@H](CCCNC(=N)N)NC(=O)[C@@H]1CCCN1C(=O)[C@@H]1CSCCCC(=O)N[C@@H](Cc2ccc(Cl)cc2)C(=O)N[C@@H](Cc2cccs2)C(=O)N[C@@H](C(C)C)C(=O)N[C@@H](CC(N)=O)C(=O)N1"
[reply] T

[ask] Is reported clearance greater than or equal to 30 mL/min/kg here: CC(C)[C@@H]1NC(=O)[C@H](Cc2cccs2)NC(=O)[C@H](Cc2ccc(O)cc2)NC(=O)CCCSC[C@@H](C(=O)N2CCC[C@H]2C(=O)N[C@H](CO)CCCNC(=N)N)NC(=O)[C@H](CC(N)=O)NC1=O (Y[2Thi]VNCP-X4; linker N-5 via X1)
[reply] F

[ask] Is reported clearance greater than or equal to 30 mL/min/kg here: "CC(C)[C@@H]1NC(=O)[C@H](Cc2cccs2)NC(=O)[C@H](Cc2ccc(Cl)cc2)NC(=O)CCCSC[C@@H](C(=O)N2CCC[C@H]2C(=O)N[C@H](CCCNC(=N)N)C(=O)NCC2CC2)NC(=O)[C@H](CC(N)=O)NC1=O"
[reply] F
